molecular target: T1, biotinylated hBLyS-ECD (human, UniProt Q9Y275 134-285, biotinylated with Biotin-X-X-NHS (molar ratio 7:1); sites not stated); assay: competition ELISA; competitor 97A3C2H4
T1 construct: also called biotinylated immunogen; biotinylated hBLvS-ECD
T1 sequence (Q9Y275 134-285): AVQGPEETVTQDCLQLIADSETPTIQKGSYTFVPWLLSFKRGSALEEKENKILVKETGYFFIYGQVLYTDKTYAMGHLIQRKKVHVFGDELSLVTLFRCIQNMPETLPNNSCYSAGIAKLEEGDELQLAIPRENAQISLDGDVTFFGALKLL
The reader will find reported inhibitory rate (%) values listed item by item below.
observed_property: inhibitory rate (%)

INSERT INTO measurements (binder, unit_of_measure, assay_value) VALUES
  ('78C11D2D12 (antibody, V domains shown, Mouse hybridoma antibody purified on Protein G) VH: QVQLQQSGAELVRPGTSVKISCKASGYAFTNYWLGWVKQRPGHGLEWIGDIYPGSGNTYYNEKFKGKATLTADKSSSTAYMQLSSLTSEDSAVFFCAAYLYAMDYWGQGTSVTVSS VL: QIVLTQSPAIMSASPGEKVTITCSASSSVSYMHWFQQKPGTSPKLWIYSASNLASGVPARFSGSGSGTSYSLTISRMEAEDAATYYCQQRGSYPFTFGSGTKLEIK', '%', 46),
  ('8E7D9C7F5 (antibody, V domains shown, Mouse hybridoma antibody purified on Protein G) VH: QVQLQQSGVELARPGASVKLSCKASGYTFTSYGISWVKQRTGQALEWIGEIYPRSGNTYYNEKFKGKATLTADKSSSTAYMELRSLTSEDSAVYFCARSGPITTLVATDYGMDYWGQGTSVTVSS VL: DIVLTQSPASLAVSLGQRATISCRASKSVSTSSYSYMHWYQQKPGQPPKLLIKFASNLESGVPARFSGSGSGTDFTLNIHPVEEEDAATYYCQHSREFPYTFGGGTKLEIK', '%', 89);
